# key: entry, value: cytotoxicity at 70.5 h
Experiment: Human HepG2 cell viability assay in 384 well format
Assay type: toxicity, cell-based
Parameters: dose 125 nL, time 70.5 hour; concentration not given beside the values
Conditions: HepG2 cells, read-out: Inhibition
Answer format: numeric, % implied, no suffix.

Previously resolved entries follow.
MOLECULE: CC(C)N1CCCC(C(=O)N2CCN(c3cnn(C)c(=O)c3)CC2)C1 (centres undefined)
cytotoxicity at 70.5 h [%]: -7.17

MOLECULE: Cc1ccc(CN(C)Cc2cc(C3CC3)[nH]n2)c(O)n1
cytotoxicity at 70.5 h [%]: -5.35

QUERY: // query cytotoxicity at 70.5 h value for entry Cc1ccc(Oc2c(F)cccc2OC[C@@H](N)CC(C)C)cc1
RESULT: 23.8

QUERY: Now the same for CC(c1cc(F)ccc1F)N(C)C(=O)NCc1ccnc(N(C)C)c1 (centres undefined)
RESULT: 2.05
